Overview of recorded cell viability for various compounds
tested on: HepG2; experiment: cell viability relative to DMSO; higher = less toxic; conditions: 72 h; 1 nM

COMPOUND	MEASUREMENT TARGET	UNIT OF MEASUREMENT	cell viability
CCN(CC)C(C)C(=O)c1ccccc1 (stereo not given)	HepG2	%	106
CC(=O)c1ccc2c(c1)[C@H](NC(=O)c1ccc(F)c(Cl)c1)[C@H](O)C(C)(C)O2	HepG2	%	95
CCOC(=O)Nc1ccc(NCc2ccc(F)cc2)cc1N	HepG2	%	97.6
CC[C@H](C)[C@H](N)C(=O)O	HepG2	%	99.5
C[C@@H]1[C@H](O)[C@@H](C)/C=C/C=C/C=C/C=C/C=C/C=C/C=C/[C@H](O[C@@H]2O[C@H](C)[C@@H](O)[C@H](N)[C@@H]2O)C[C@@H]2O[C@](O)(C[C@@H](O)C[C@@H](O)[C@H](O)CC[C@@H](O)C[C@@H](O)CC(=O)O[C@H]1C)C[C@H](O)[C@H]2C(=O)O	HepG2	%	97.4
COC(=O)CCC(=O)CN [methyl-aminolevulinate]	HepG2	%	83.8
CC(C)(Oc1ccc(CCNC(=O)c2ccc(Cl)cc2)cc1)C(=O)O [bezafibrate]	HepG2	%	98.1
CC(C)NC(=N)NC(=N)Nc1ccc(Cl)cc1	HepG2	%	94.8
COc1ccc(-c2cc(C(F)F)nn2-c2ccc(S(N)(=O)=O)cc2)cc1F	HepG2	%	96.4
CC(CCc1ccc(O)cc1)NCCc1ccc(O)c(O)c1 (stereo not given)	HepG2	%	106

----------
Reported drug sensitivity score by item:
system: Caco-2; test: drug sensitivity score (DSS) for viability; higher = more toxic; extreme values may be limits of the assay; details: 72 h

MOLECULE	drug sensitivity score
CN1CCN(c2ccc(/C=C(\C#N)c3ccccc3Br)cc2)CC1 [DG-172]	0.2
O=C(O)CCCc1ccccc1 [phenylbutyrate]	0
CC(O)Cn1cnc2c1c(=O)n(C)c(=O)n2C (stereo not given) [Proxyphylline]	0
O=C1[C@@H]2[C@H]3CC[C@H](C3)[C@@H]2C(=O)N1CCCCN1CCN(c2ncccn2)CC1 [tandospirone]	0
COc1cc2c(cc1OC)-c1c(C)c3ccc(OC)c(OC)c3c[n+]1CC2 [dehydrocorydaline]	0
C[C@H](c1ccc(F)cc1CCCC(=O)O)N(c1cc(F)ccc1F)S(=O)(=O)c1ccc(Cl)cc1	0.1
O=S1(=O)OC(c2ccc(O)cc2)(c2ccc(O)cc2)c2ccccc21 [phenolsulfonphthalein]	0.1
Cc1[nH]cnc1CN1CCc2c(c3ccccc3n2C)C1=O [alosetron]	0
CC[C@]12C=CCN3CC[C@@]4(c5cc([C@@]6(C(=O)OC)C[C@@H]7C[C@@H](C(C)(F)F)CN(Cc8c6[nH]c6ccccc86)C7)c(OC)cc5N(C)[C@H]4[C@@](O)(C(=O)OC)[C@@H]1OC(C)=O)[C@@H]32 [Vinflunine Ditartrate]	10.9
NCCCC(O)(P(=O)(O)O)P(=O)(O)O [alendronate]	0
CC1=CC[C@@H](C(C)(C)O)C[C@@H]1O [sobrepin]	0
CCN(CC)C(=O)Nc1ccc(OCC(O)CNC(C)(C)C)c(C(C)=O)c1 (stereo not given) [celiprolol]	0
COc1ccc(C(=O)NCc2cccnc2)cc1C(=O)NCc1cccnc1 [picotamide]	0
COc1cc(Cc2cnc(N)nc2N)cc(OC)c1OC [trimethoprim]	0
COCc1nc2c([nH]1)c(=O)n(C)c(=O)n2CC(C)C [MMPX]	0
Cc1cnc(C(=O)N[C@H]2CCCCC/C=C\[C@@H]3C[C@@]3(C(=O)NS(=O)(=O)C3CC3)NC(=O)[C@@H]3C[C@@H](Oc4nc5ccccc5c5ccccc45)CN3C2=O)cn1 [paritaprevir]	0
C[C@H]1[C@H](C)CC[C@]2(C(=O)O)CC[C@]3(C)C(=CC[C@@H]4[C@@]5(C)C[C@@H](O)[C@H](O)[C@@](C)(CO)[C@@H]5CC[C@]43C)[C@H]12 [asiatic-acid]	0.4
CCN(CC)C(C)C(=O)c1ccccc1 (stereo not given) [amfepramone]	0
N[C@@H]1c2cccnc2[C@H](OC(=O)N2CCC(n3c(=O)[nH]c4ncccc43)CC2)CC[C@H]1c1cccc(F)c1F [rimegepant]	0
Cc1sc2c(c1C)C(c1ccc(Cl)cc1)=N[C@@H](CC(=O)Nc1ccc(O)cc1)c1nnc(C)n1-2 [OTX015]	4.3
